Quick list: fluorescence artifact activation per entry.
Assay Method Text: IANBD-channel fluorescence artefacts in buffer – biochemical, artefact control for cardiac RTF calcium sensitizer project, confirmation (AID 504382)
Measurement Context: IANBD fluorescence interference counterscreen, EC20 Ca2+, at 7.2 µM, hits give high values, scaled: EC20 calcium 0, EC100 calcium 100
Screen size: about 2,500 compounds; about 460 (18%) were called active. The list is a sample of the results.
Measured Attribute: fluorescence artifact activation

Molecule: CCOC(=O)c1cn(-c2ccc(F)c(F)c2F)c2c(F)c(F)c(F)cc2c1=O
Measurement: 0.24% (inactive)

Molecule: COc1cc(/C=C2/SC(=S)N(CCC(=O)Nc3ccccc3)C2=O)cc(OC)c1OC
Measurement: 0.06% (inactive)

Molecule: N=C1/C(=C\c2coc3ccccc3c2=O)C(=O)N=C2SC(c3ccncc3)=NN12
Measurement: 7.67% (inactive)

Molecule: CCN(CC)c1ccc(C=Nc2cc(C)ccc2C)c(O)c1
Measurement: 1.34% (inactive)

Molecule: CCOCCCn1c(=NC(=O)c2cccs2)c(C#N)cc2c(=O)n3cccc(C)c3nc21
Measurement: 1.11% (inactive)

Molecule: COc1ccc(OCC(=O)OCCNC(=O)c2cccnc2)cc1
Measurement: 0.14% (inactive)

Molecule: Cc1ccc(-c2nc3sc(C#N)c(N)n3c(=O)c2C#N)cc1
Measurement: 0.13% (inactive)

Molecule: Cc1cc[n+](-c2[nH]c(=O)sc2/C=N/NC([S-])=Nc2ccccc2)cc1
Measurement: 1.49% (inactive)

Molecule: COc1ccccc1C(=O)n1nc(-c2ccccc2)nc1N
Measurement: -0.09% (inactive)

Molecule: O=C(O)c1ccc(-n2c(/C=C/c3cccc([N+](=O)[O-])c3)nc3ccccc3c2=O)cc1
Measurement: 0.47% (inactive)

Molecule: COc1cc(/C=C2\CCC(C)C3=C(c4cc(OC)c(OC)c(OC)c4)C(C#N)=C(N)OC32)cc(OC)c1OC (stereo unspecified)
Measurement: 14.5% (active)

Molecule: CC(/C=N/Nc1ccc2nncn2n1)=C\c1ccccc1
Measurement: 12.9% (active)

Molecule: Oc1cccc(Nc2nc(O)c(/C=C3\C=Nc4ccccc43)s2)c1
Measurement: 43% (active)

Molecule: COc1ccc(CN2CCC(C(=O)N3CCN(c4ccccc4F)CC3)CC2)cc1OC
Measurement: 0.36% (inactive)

Molecule: N#CC1(NC(=O)CN2CCN(S(=O)(=O)c3ccccc3F)CC2)CCCC1
Measurement: -0.12% (inactive)

Molecule: Cc1cc(S(=O)(=O)Nc2c(C)nn(C)c2C)c(Cl)cc1Cl
Measurement: 0.08% (inactive)

Molecule: NC(N)=NCc1cccc(I)c1
Measurement: 0.57% (inactive)

Molecule: C=C1CCN(C(CC(C)C)C(=O)OC)S(=O)(=O)c2ccccc21 (stereo unspecified)
Measurement: 0.08% (inactive)

Molecule: CCCN1C(=O)/C(=C/C=C2\N(CC)c3ccccc3C2(C)C)SC1=S
Measurement: 0.48% (inactive)

Molecule: CC(C)CSC1=NSC2=NC(=O)/C(=C\c3coc4ccccc4c3=O)C(=N)N12
Measurement: 12.7% (active)

Molecule: Cc1ccc(S(=O)(=O)N2CCN(c3ncccn3)CC2)cc1C
Measurement: -0.05% (inactive)

Molecule: CC(C)CC1=NN2C(=N)/C(=C\c3coc4ccccc4c3=O)C(=O)N=C2S1
Measurement: 2.69% (inactive)

Molecule: C[C@H](CO)N1C[C@H](C)[C@@H](CN(C)Cc2ccc(Oc3ccccc3)cc2)Oc2c(NC(=O)C3CC3)cccc2C1=O
Measurement: 20.1% (active)

Molecule: CC1=NN(C(=O)c2ccc(Cn3ccc([N+](=O)[O-])n3)cc2)C(O)(C(F)(F)F)C1 (stereo unspecified)
Measurement: 5.1% (inactive)

Molecule: CC1=C(C)CC(C(=O)NNC(=O)c2cccc(Cl)c2)C(C(=O)O)C1 (stereo unspecified)
Measurement: -0.06% (inactive)

Molecule: Cc1cccc(Nc2c([N+](=O)[O-])c(=O)oc3ccccc23)c1
Measurement: 7.76% (inactive)

Molecule: O=C(Cn1cnc2c(cnn2-c2ccccc2)c1=O)Nc1ccc(S(=O)(=O)N2CCOCC2)cc1
Measurement: 7.41% (inactive)

Molecule: Cc1cccc(C)c1-n1c(C)nn(-c2ncc(C(F)(F)F)cc2Cl)c1=O
Measurement: 0.09% (inactive)

Molecule: Cc1ccc(CNC(=O)c2cccc3c2C(=O)c2ccc(N4CCCCC4)cc2S3(=O)=O)cc1
Measurement: -0.01% (inactive)

Molecule: COc1ccc(/C=C2\CC/C(=C\c3ccc(OC)cc3OC)C2=O)c(OC)c1
Measurement: 9.84% (inactive)

Molecule: CCSC1=NSC2=NC(=O)/C(=C\c3coc4ccccc4c3=O)C(=N)N12
Measurement: 24.5% (active)

Molecule: CC(=O)N(C)c1ccc(C(O)(C(F)(F)F)C(F)(F)F)cc1
Measurement: 7.43% (inactive)

Molecule: C#CCSc1nc2[nH]ncc2c(=O)[nH]1
Measurement: 0.09% (inactive)

Molecule: Cc1cc(C)nc(SCCCNCc2ccc(Br)cc2)n1
Measurement: -0.01% (inactive)

Molecule: O=C(c1ccc2c(=O)n3c(nc2c1)CCCCC3)N1CCN(c2cccc(Cl)c2)CC1
Measurement: 0.04% (inactive)

Molecule: CSC1=NSC2=NC(=O)/C(=C/c3coc4ccccc4c3=O)C(=N)N12
Measurement: 0.27% (inactive)

Molecule: O=C1NC(c2ccccc2)=C(c2nc3ccccc3s2)C(c2ccc(O)cc2)N1 (stereo unspecified)
Measurement: -0.03% (inactive)

Molecule: CC1CCN(c2ccc3c(c2)S(=O)(=O)c2cccc(C(=O)NCc4cccc(F)c4)c2C3=O)CC1
Measurement: 0.09% (inactive)

Molecule: C[C@H](CO)N1C[C@H](C)[C@@H](CN(C)Cc2ccncc2)Oc2c(NC(=O)c3ccncc3)cccc2C1=O
Measurement: 1.32% (inactive)

Molecule: CCCN1C(=O)/C(=C\C=C2\N(CC)c3ccccc3C2(C)C)SC1=S
Measurement: 0.28% (inactive)

Molecule: CC(C)n1cnc2c(NCc3ccccc3)cc(N[C@H](C)CO)cc21
Measurement: -0.08% (inactive)
